# System: HTT mRNA
# experiment: RT-qPCR splicing assay, HTT canonical junction (CJ) and alternative junction (AJ) mRNA
# Format: cell-based, human
# assayContext: Homo sapiens; Table 5 panel; canonical junction qPCR; compound concentration having 50% response in CJ decrease; read-out: HTT IC50 (decrease in CJ mRNA levels)
pIC50: −log10 of the molar value.
Would you kindly list pIC50 for each of these compounds?

get_value(item= Cn1cc2cc(-c3cc(F)c4c(=O)n(C5CCNC6(CC6)C5)ccc4c3)c(O)c(F)c2n1 (stereo not shown) , readout=pIC50) returns 5.00 to 6.00

So for Cc1cn2cc(-c3cc(F)c4c(=O)n(C5CCNCC5)cnc4c3)cc(C#N)c2n1 , the logged pIC50 turned out to be 5.00 to 6.00

Sure, the documented pIC50 for COc1cccc(Oc2cc(-c3ccc4c(=O)n(C5CCNCC5)ccc4c3)nn3cc(C)nc23)c1 is > 7.00

// sample Cc1cn2nc(-c3cc4ncn(C5CCNCC5)c(=O)c4cc3F)cc(C)c2n1 , its pIC50 was 5.00 to 6.00

# credit: patent US20250332173A1
